System: Enterovirus A71
Experiment: Antiviral activity against human EV71 BrCr infected human RD cells assessed as reduction in cytopathic effect pretreated with cells followed by viral infection and measured after 3 to 4 days post infection
Type: functional, organism-based
Conditions: Enterovirus A
Observable: EC50 (nM)
Write it as a number; the unit nM goes unstated.

Query string: Field request: EC50 | item: OC[C@H]1O[C@@H](n2cnc3c(NCc4c(F)cccc4F)ncnc32)[C@H](O)[C@@H]1O
Result string: 210

---

# CC50 per record follows
Experiment: Cytotoxicity against human RD cells
Format: toxicity, cell-based

| Cpd smiles | CC50 |
| --- | --- |
| OC[C@H]1O[C@@H](n2cnc3c(NCc4cccc(C(F)(F)F)c4)ncnc32)[C@H](O)[C@@H]1O | > 235 µM |

Please find the next compound below.
Query string: Find the recorded CC50 belonging to OC[C@H]1O[C@@H](n2cnc3c(NCc4c(F)cccc4F)ncnc32)[C@H](O)[C@@H]1O and report it.
Result string: > 245 µM

---

Assay: Cytotoxicity against porcine PEK cells assessed as reduction in cell viability after 7 days by resazurin staining based analysis
Assay type: toxicity, Sus scrofa
Conditions: pig, time 7 day
Observable: CC50 at 168 h

Sample records with CC50 at 168 h:
| Cpd smiles | CC50 at 168 h |
| --- | --- |
| OC[C@H]1O[C@@H](n2cnc3c(NCc4ccc(C#Cc5ccccc5)cc4)ncnc32)[C@H](O)[C@@H]1O | > 50 µM |
| OC[C@H]1O[C@@H](n2cnc3c(NCc4ccc(-c5ccccc5)cc4)ncnc32)[C@H](O)[C@@H]1O | > 50 µM |
| OC[C@H]1O[C@@H](n2cnc3c(NCc4cc(C(F)(F)F)cc(C(F)(F)F)c4)ncnc32)[C@H](O)[C@@H]1O | > 50 µM |
| Nc1onc(C(=O)OCC23CC4CC(CC(C4)C2)C3)c1CCc1ccccc1 | > 100 µM |
| OC[C@H]1O[C@@H](n2cnc3c(NCc4ccccc4C(F)(F)F)ncnc32)[C@H](O)[C@@H]1O | > 50 µM |
| OC[C@H]1O[C@@H](n2cnc3c(NCc4ccc(-c5ccc(C(F)(F)F)cc5)cc4)ncnc32)[C@H](O)[C@@H]1O | 26 µM |
| OC[C@H]1O[C@@H](n2cnc3c(NCc4ccc(C(F)(F)F)cc4)ncnc32)[C@H](O)[C@@H]1O | > 50 µM |

Next compound, please.
Query string: Report CC50 at 168 h for OC[C@H]1O[C@@H](n2cnc3c(NCc4cccc(C(F)(F)F)c4)ncnc32)[C@H](O)[C@@H]1O please.
Result string: > 50 µM

---

Assay: Selectivity index, ratio of CC50 for human A549 cells to EC50 for TBEV infected in human A549 cells
Type: toxicity, cell-based
Details: read-out: Ratio CC50/EC50
Observable: selectivity ratio

Query string: For the molecule shown here, CCC(CC)COC(=O)[C@H](C)N[P@](=O)(OC[C@H]1O[C@@](C#N)(c2ccc3c(N)ncnn23)[C@H](O)[C@@H]1O)Oc1ccccc1 , give the reported selectivity ratio.
Result string: 4.8

---

Assay: Cytotoxicity against African green monkey Vero cells assessed as reduction in cell viability after 7 days by resazurin staining based analysis
Format: toxicity
Conditions: chlorocebus sabaeus, time 7 day
Reported CC50 at 168 h is given for each of the following molecules.

| Cpd smiles | Value reported |
| --- | --- |
| OC[C@H]1O[C@@H](n2cnc3c(NCc4ccccc4C(F)(F)F)ncnc32)[C@H](O)[C@@H]1O | > 50 µM |
| Nc1onc(C(=O)OCC23CC4CC(CC(C4)C2)C3)c1CCc1ccccc1 | > 100 µM |
| OC[C@H]1O[C@@H](n2cnc3c(NCc4ccc(C#CC5CCCC5)cc4)ncnc32)[C@H](O)[C@@H]1O | 38 µM |
| OC[C@H]1O[C@@H](n2cnc3c(NCc4ccc(-c5ccccc5C(F)(F)F)cc4)ncnc32)[C@H](O)[C@@H]1O | > 41 µM |
| NC(=O)c1nc(F)cnc1O | > 1000 µM |
| OC[C@H]1O[C@@H](n2cnc3c(NCc4ccc(-c5cccc(C(F)(F)F)c5)cc4)ncnc32)[C@H](O)[C@@H]1O | > 50 µM |
| OC[C@H]1O[C@@H](n2cnc3c(NCc4ccc(C#CC5=CCCCC5)cc4)ncnc32)[C@H](O)[C@@H]1O | > 50 µM |
| OC[C@H]1O[C@@H](n2cnc3c(NCc4ccc(-c5ccccc5)cc4)ncnc32)[C@H](O)[C@@H]1O | > 50 µM |
| OC[C@H]1O[C@@H](n2cnc3c(NCc4cc(C(F)(F)F)cc(C(F)(F)F)c4)ncnc32)[C@H](O)[C@@H]1O | > 50 µM |
| OC[C@H]1O[C@@H](n2cnc3c(NCc4ccc(-c5ccc(C(F)(F)F)cc5)cc4)ncnc32)[C@H](O)[C@@H]1O | 28.5 µM |

Query string: Record request: CC50 at 168 h value, item OC[C@H]1O[C@@H](n2cnc3c(NCc4cccc(C(F)(F)F)c4)ncnc32)[C@H](O)[C@@H]1O
Result string: > 50 µM

Query string: Give its CC50 at 168 h value. Item: OC[C@H]1O[C@@H](n2cnc3c(NCc4ccc(C#CC5CC5)cc4)ncnc32)[C@H](O)[C@@H]1O
Result string: > 50 µM

Query string: Name the reported CC50 at 168 h value associated with the molecule OC[C@H]1O[C@@H](n2cnc3c(NCc4ccc(C#Cc5cc(C(F)(F)F)cc(C(F)(F)F)c5)cc4)ncnc32)[C@H](O)[C@@H]1O
Result string: 15.7 µM

Query string: Sample OC[C@H]1O[C@@H](n2cnc3c(NCc4ccc(C#Cc5ccccc5)cc4)ncnc32)[C@H](O)[C@@H]1O — what was its CC50 at 168 h?
Result string: > 50 µM

Query string: Field request: CC50 at 168 h | item: OC[C@H]1O[C@@H](n2cnc3c(NCc4ccc(C(F)(F)F)cc4)ncnc32)[C@H](O)[C@@H]1O
Result string: > 50 µM
